Tested on: EKVX NSCLC
measurement.notes: NCI tumour cell line growth inhibition, 48 h

| compound | tgt | TGI |
| --- | --- | --- |
| COc1cc(C)c2c(c1)CN1CN2Cc2cc(OC)cc(C)c21 | EKVX NSCLC | > 100 µM |
| COC1=CC(=O)O/C1=C(\OC)C1OC1c1ccccc1 (centres undefined) | EKVX NSCLC | > 100 µM |
| Cc1cc(Cl)ccc1NC(=O)CCCC(=O)C1C/C(=N/O)CC/C1=N\O (centres undefined) | EKVX NSCLC | > 100 µM |
| C=C(NC(=O)C(=C)NC(=O)c1ccc2c(n1)-c1coc(n1)C(=C)NC(=O)C(=C)NC(=O)c1nc(oc1C)C(=C)NC(=O)C(C(C)(C)O)NC(=O)C(=C)NC(=O)c1coc(n1)/C(=C/C)NC(=O)[C@H]([C@@H](C)O)NC(=O)c1csc-2n1)C(N)=O (some centres undefined) | EKVX NSCLC | > 87.5 µM |

====

// reported TGI for each item listed
Tested on: SNB-75 CNS
measurement.notes: NCI tumour cell line growth inhibition, 48 h

| compound | TGI |
| --- | --- |
| NC(N)=N/N=C\c1ccc(OCc2ccccc2)cc1 | 4.7 µM |
| N#Cc1nc(CCc2nc(C#N)c(N)o2)oc1N | > 10 µM |
| COc1cc(N2C(=O)[C@H](Cl)C2c2ccc(SC)cc2)cc(OC)c1OC (some centres undefined) | > 100 µM |
| C=CCC(O[Si](C)(C)C(C)(C)C)c1cc(O[Si](C)(C)C(C)(C)C)ccc1OC (centres undefined) | > 100 µM |
| O=c1[nH]ccc(CNC23CC4CC(CC(C4)C2)C3)c1O | > 100 µM |
| O=C(Nc1ccc(Cl)cc1C(F)(F)F)C(=O)Nn1c(=S)[nH]c2ccccc2c1=O | > 100 µM |
| COC(=O)C1CC(c2ccc(OC)c(OC)c2)OC1=O (mixture of isomers) | > 100 µM |
| O=c1c2cccnc2ncn1CCCN1CCCCC1 | > 100 µM |
| COc1cccc2c1C(=O)c1c(O)c3c(c(O)c1C2=O)C[C@@](O)(C(C)=O)CC3OC1CC(OC2CC(N)C(O)C(C)O2)C(O)C(C)O1 (some centres undefined) | 85.7 µM |
| O=C(Nc1n[nH]c2cc(-c3cc(F)ccc3F)ccc12)C1CC1 | > 25 µM |
| CCCCNC(c1ccc(Cl)cc1)C(O)c1ccc(Cl)cc1 (centres undefined) | 11.4 µM |
| O=C1NC(O)c2cc3ccccc3cc2O1 (centres undefined) | > 100 µM |
| CN(C)CCC(=O)Nc1ccc(-n2cc(-c3cccc(NC(=S)Nc4cccc(-c5cn(-c6ccc(NC(=O)CCN(C)C)cc6)nn5)c4)c3)nn2)cc1 | 65.6 µM |
| COC1(CC[C@@H](C)COC2OC(CO)C(O)C(O)C2O)OC2C[C@H]3[C@@H]4CC[C@H]5C[C@@H](OC6OC(CO)C(OC7OC(CO)C(O)C(O)C7O)C(O)C6OC6OC(C)C(O)C(O)C6O)[C@H](O)C[C@]5(C)[C@H]4CC[C@]3(C)C2[C@@H]1C (some centres undefined) | 3.49 µM |
| C=C1C(=O)O[C@@H]2/C=C(/C)[C@@H](OC(C)=O)C/C=C(\C)C(O)[C@@H](OC(=O)/C(C)=C\C)C12 (some centres undefined) | > 100 µM |
| Cc1cccc(C)c1NC(=O)C(=O)Cc1nc2ccccc2s1 | > 100 µM |
| COC(=N)C1(C#N)NC(c2ccsc2)C(C#N)(C#N)NC1c1ccsc1 (centres undefined) | > 100 µM |
| N#Cc1c(NC(=S)Nc2ccc(Cl)cc2)sc2c1CCN(N1CCc3c(sc(NC(=S)Nc4ccc(Cl)cc4)c3C#N)C1)C2 | > 100 µM |
| CCN1CC2(C)CCC(OC)C34C5CC6CCC(O)(C5C(=O)O6)C(C(O)C23)C14 (centres undefined) | > 100 µM |

====

Measured TGI by item
System: HOP-62 NSCLC
measurement.notes: NCI tumour cell line growth inhibition, 48 h
reported.endpoint: TGI

| compound | measured.value |
| --- | --- |
| COc1ccc(-c2nc3ccccc3s2)cc1OC | > 100 µM |
| COc1ccc(-c2ccc(C3CC(c4ccccc4)=NN3)o2)c([N+](=O)[O-])c1 (stereo not drawn) | > 100 µM |
| Nc1c(C(=O)c2ccc(Cl)c(Cl)c2)[nH]c(NCc2ccccc2)c1C(=S)Nc1ccccc1 | 34.7 µM |

====

Test system: UACC-257 melanoma
measurement.notes: NCI tumour cell line growth inhibition, 48 h
reported.endpoint: TGI

| compound | reported.endpoint | measured.value |
| --- | --- | --- |
| CCc1nc(N)c2nc(-c3cccs3)oc2n1 | TGI | > 100 µM |
| Cc1cccc(C)c1NC(=O)C(=O)Cc1nc2ccccc2s1 | TGI | > 100 µM |
| Cc1cc(Cl)ccc1NC(=O)CCCC(=O)C1C/C(=N/O)CC/C1=N\O (stereo not given) | TGI | > 100 µM |
| COC1=CC(c2ccc[nH]2)=N/C1=C\c1[nH]c(C)c(C(=O)CCCCCCCCC(=O)O[C@H]2CC[C@H]3C4CCc5cc(O)ccc5C4CC[C@]23C)c1C (stereo not given in full) | TGI | > 50 µM |
| CC(C)CCCC(C)[C@H]1CCC(C2C[C@@H](O)[C@@H]3CC(O)[C@@H](O)C[C@]3(CO)C2=O)[C@]1(C)CCO (stereo not given in full) | TGI | 46.5 µM |
| COc1ccc(CCNC(=O)Cc2ccccc2CO)cc1OC | TGI | > 100 µM |
| Clc1ccc2c(c1)N(CCCN1CCCC13CCCCC3)c1ccccc1S2 | TGI | 24.4 µM |
| Cc1nc(NC(C)(CO)CO)nc(N/N=C/c2ccc(Cl)cc2)c1C(=O)Nc1ccc(Cl)cc1 | TGI | > 100 µM |
| Cc1c(C)c([N+](=O)[O-])c2c(c1N)C(=O)c1ccccc1C2=O | TGI | > 100 µM |
| COc1cc(C2CC(c3ccc(Nc4nc(NCCO)nc(NCCO)n4)cc3)=NN2c2cc(Cl)cc(Cl)c2)cc(OC)c1OC (stereo not given) | TGI | 3.87 µM |

====

Tested on: CAKI-1 renal
measurement.notes: NCI tumour cell line growth inhibition, 48 h
# key: entry, value: TGI

| compound | qualifier.operator | TGI, µM |
| --- | --- | --- |
| CC1=C(C)C(=O)C(C2=CC(=O)c3ccccc3C2=O)=C(C2=CC(=O)c3ccccc3C2=O)C1=O | = | 8.86 |
| Cc1ccc(/C(=N/Nc2ccc([N+](=O)[O-])cc2)Sc2cc(Cl)c(C)cc2S(N)(=O)=O)cc1 | = | 3.27 |
| C[C@]12CC[C@H]3[C@@H](CC=C4C[C@@H](N5CCCC5)CC[C@@]43C)[C@@H]1C[C@H](N1CCCCC1)[C@@H]2O | > | 100 |
| Oc1ccc(C(O)C2CCCCN2)cc1O (stereo not given) | > | 100 |
| C=C(C)C1CC(=O)C(C)=C(O)C1 (stereo not given) | > | 100 |

====

Overview of reported TGI across a group of molecules:
Tested on: T-47D breast
measurement.notes: NCI tumour cell line growth inhibition, 48 h
reported.endpoint: TGI

| molecule | tgt | measured.value |
| --- | --- | --- |
| N#Cc1c(NC(=S)Nc2ccc(Cl)cc2)sc2c1CCN(N1CCc3c(sc(NC(=S)Nc4ccc(Cl)cc4)c3C#N)C1)C2 | T-47D breast | > 100 µM |
| Cc1ccc(/C(=N/Nc2ccc([N+](=O)[O-])cc2)Sc2cc(Cl)c(C)cc2S(N)(=O)=O)cc1 | T-47D breast | > 23.2 µM |
| CC(C)C[C@@H](N)[C@@H](O)C(=O)N[C@H](C(=O)N[C@H](C(=O)N[C@@H](CC(=O)O)C(=O)O)C(C)C)C(C)C | T-47D breast | > 20 µM |
| O=C(Nc1ccccc1)N1CCN(C(=O)Nc2ccccc2)C1=S | T-47D breast | > 100 µM |
| [N-]=[N+]=CC(=O)CCC(N)C(=O)O (stereo not given) | T-47D breast | > 250 µM |
| COc1ccc(-n2cc(-c3ccc(OC)c(OC)c3)[nH]c2=O)cc1 | T-47D breast | > 100 µM |
| COc1ccc(-n2c(=S)sc3c(Cl)nc(C)nc32)c(OC)c1 | T-47D breast | 21.6 µM |
| CN1CCN(C2=NC(=O)/C(=C\c3ccc(N(C)C)cc3)S2)CC1 | T-47D breast | > 100 µM |
| Cn1c(I)c(C#C[Si](C)(C)C)c(=O)n(C(=O)c2ccccc2)c1=O | T-47D breast | 5.91 µM |
| CC(C)(C)C(=O)Nc1c(C=O)ccc2[nH]cnc12 | T-47D breast | > 100 µM |
| COC1/C=C/C(C)C(O)CC(O)/C=C/C(C)C(C(C)C(OC)C(C)CCC(=O)C(C)C(C/C=C/N(C)C=O)OC)OC(=O)/C=C/C=C(\C)CC(OC)CC2=CC(=O)O[C@@H](C(C)C(OC)C1)[C@H]2O (stereo not given in full) | T-47D breast | 1.28 µM |
| Cc1cn(CCCCCCOC(=O)NC(CCCNC(N)=O)C(=O)O)c(=O)[nH]c1=O (stereo not given) | T-47D breast | > 100 µM |
| COc1nc(Cl)nc(N[C@H](C)c2c3ccccc3cc3ccccc23)n1 | T-47D breast | 9.08 µM |
| CSC(SC)=C(C(=O)c1ccc(Cl)cc1)n1c(=O)sc2cc(Br)ccc21 | T-47D breast | > 100 µM |
| COc1ccc(-c2ccc(OC)c(OC)c2OC)cc1 | T-47D breast | > 100 µM |
| O=C(O)CSC(CC(=O)c1ccc(Cl)cc1)c1ccc(Cl)cc1 (stereo not given) | T-47D breast | 98.4 µM |
| O=C1NC(=NCCc2ccc(Cl)cc2)S/C1=C\c1ccc2ncccc2c1 | T-47D breast | > 25 µM |
| N[C@@H](CCC(=O)NC(Cc1ccccc1)C(=O)NCP(=O)(O)O)C(=O)O (stereo not given in full) | T-47D breast | > 100 µM |
| O=c1c2cc(Br)cc(Br)c2[nH]c(=S)n1-c1ccc(N=Nc2ccc(O)c3cccnc23)cc1 | T-47D breast | > 100 µM |
| COc1cc2c[n+]3c4c(c2c(OC)c1OC)CCCC4CC3 (stereo not given) | T-47D breast | > 100 µM |
| COP(=O)(OC)OCN(C)CC/C=C(\C)CC/C=C(\C)CCC=C(C)C | T-47D breast | 43.9 µM |
| CC(Nc1ccc(Cl)cc1)c1ccncc1 (stereo not given) | T-47D breast | > 100 µM |
| COc1cc2c(cc1C)NC(=O)/C2=C/c1ccnc2ccccc12 | T-47D breast | > 50 µM |
| CCOP(=O)(/C=C/n1cc(C)c(=O)[nH]c1=O)OCC | T-47D breast | > 100 µM |
| O=C1c2cc3c(cc2-c2c1c1cc(F)c(F)cc1c(=O)n2CCCn1ccnc1)OCO3 | T-47D breast | 0.0577 µM |
| O=C1C(=O)c2c(nc3ccc(C(F)(F)F)cn23)-c2ccccc21 | T-47D breast | 0.57 µM |
| N#C/C(=C\c1ccc2[nH]ccc2c1)C(=O)NCCCCNC(=O)/C(C#N)=C/c1ccc2[nH]ccc2c1 | T-47D breast | > 10 µM |
| CCCC(=O)O[C@]1(C)CC[C@@H]2[C@H]3[C@@H]1[C@@H]1C[C@@](C)(O)[C@H](OC)CC[C@](C)(OC(=O)[C@@H]2C)[C@H]3O1 | T-47D breast | 44.5 µM |
| CCN1CC2(C)CCC(OC)C34C5CC6CCC(O)(C5C(=O)O6)C(C(O)C23)C14 (stereo not given) | T-47D breast | > 100 µM |
| COc1cc2c(/C=C3/C(=O)Nc4ccccc43)c(Cl)n(Cc3ccc(Cl)cc3)c2cc1C | T-47D breast | 24.2 µM |
| O=C1c2cccc3cccc(c23)C(=O)N1CCCCCN1CCN(CCN=c2cc3n(-c4ccc(Cl)cc4)c4ccccc4nc-3cc2Nc2ccc(Cl)cc2)CC1 | T-47D breast | > 50 µM |
| O=c1[nH]c(=O)n(COC(CO)CO)cc1-c1ccccc1 | T-47D breast | > 100 µM |
| CCCCCCCC/C=C/CCCCCCCC1=NC(C)(C)CN1C(C)(C)CO | T-47D breast | 11.8 µM |
| N=C1CCCC1C(=S)SCCC(N)=O (stereo not given) | T-47D breast | > 100 µM |
| CC1=NN(C(=O)CC(=O)Nc2cccc(C)c2)C(=O)C1N=Nc1ccc(S(=O)(=O)CCOS(=O)(=O)O)cc1 (stereo not given) | T-47D breast | > 49.5 µM |
